// values below are pIC50; system is cGMP-specific PDE (PDE5) (Homo sapiens, UniProt O76074)
pIC50 here is simply -log10 of the concentration when that concentration is written in mol/L.

Query :: Record request: pIC50 value, item CCCOc1ccc(C(C)=O)cc1-c1nc2c(CC)n(CCCC(=O)O)nc2c(=O)[nH]1
Result :: 8.74

Query :: # lookup: pIC50 of CCCOc1ccc(C(C)=O)cc1-c1nc2c(CC)n(CC(=O)OC(C)(C)C)nc2c(=O)[nH]1
Result :: 8.66

Query :: Would you mind telling me what pIC50 value was observed for CCCCOc1ccc(C(C)=O)cc1-c1nc2c(CC)n(C3CN(C(C)C)C3)nc2c(=O)[nH]1 ?
Result :: 7.64
